- System: RARb:RXRa (NR concentration 270 nM, RXRa partner concentration 90 nM)
- protocol details: PBM binding z-score (relative to random genomic background probes); higher = stronger binding; sequences stand for … in GC…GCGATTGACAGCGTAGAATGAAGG
test readout: PBM binding z-score

# example entries with known answers
[[record]]
sequence_input = "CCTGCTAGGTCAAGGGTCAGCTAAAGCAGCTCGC"
result = 4.96

[[record]]
sequence_input = "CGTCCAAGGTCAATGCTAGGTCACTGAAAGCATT"
result = 5.33

[[record]]
sequence_input = "CTATGTAGGATAAGGGGGTCATTCAGTTTGAAAG"
result = 3.27

[[record]]
sequence_input = "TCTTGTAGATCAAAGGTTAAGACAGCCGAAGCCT"
result = 1.91

[[record]]
sequence_input = "AGTCAAAGTTCATCTAGGTATCGTAAGATATGCT"
result = 4.95


Would you mind listing PBM binding z-score for each of the following sequences?
1. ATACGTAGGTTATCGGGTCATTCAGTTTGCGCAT
2. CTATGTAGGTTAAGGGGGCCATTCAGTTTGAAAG
3. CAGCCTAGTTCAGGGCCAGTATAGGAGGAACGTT

1: 2.59; 2: 1.94; 3: 1.05
